biological target: rat NPFF1 receptor (Rattus norvegicus); construct: expressed in transfected cells; host or cells: not given; test: Functional assay (agonist potency, intrinsic activity) at cloned rat NPFF1 receptor; type: cell-based; conditions: Table 7, intrinsic activity
Sequence (Q9EP86 whole entry): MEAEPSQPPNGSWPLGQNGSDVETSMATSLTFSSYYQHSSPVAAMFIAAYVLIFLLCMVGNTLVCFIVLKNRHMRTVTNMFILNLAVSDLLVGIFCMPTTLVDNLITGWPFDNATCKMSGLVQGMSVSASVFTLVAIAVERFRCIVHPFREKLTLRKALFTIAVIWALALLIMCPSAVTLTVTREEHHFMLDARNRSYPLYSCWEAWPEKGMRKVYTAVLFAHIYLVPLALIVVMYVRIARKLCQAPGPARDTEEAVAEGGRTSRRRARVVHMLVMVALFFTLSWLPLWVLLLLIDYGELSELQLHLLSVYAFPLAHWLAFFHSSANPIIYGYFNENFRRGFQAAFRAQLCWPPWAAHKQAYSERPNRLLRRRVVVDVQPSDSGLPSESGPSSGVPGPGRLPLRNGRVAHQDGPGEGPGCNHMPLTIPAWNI
Mark Met only when rNPFF1 IA stays strictly below 40 % NPFF. Values equal to the cut-off are Not met.

# strict comparison: is reported rNPFF1 IA < 40 % NPFF? input = CCC(C)c1ccc2nc(NC(=N)N)nc(C)c2c1 (centres unmarked) [Compound 2002A] Not met

# strict comparison: is reported rNPFF1 IA < 40 % NPFF? input = CCCCCc1ccc2nc(NC(=N)N)nc(C)c2c1 [Compound 2001A] Not met

# strict comparison: is reported rNPFF1 IA < 40 % NPFF? input = Cc1nc(NC(=N)N)nc2cc(OCc3ccccc3)ccc12 [Compound 1006A] Met

# strict comparison: is reported rNPFF1 IA < 40 % NPFF? input = Cc1nc(NC(=N)N)nc2ccc(Oc3ccccc3)cc12 [Compound 1032A] Met

# strict comparison: is reported rNPFF1 IA < 40 % NPFF? input = CCCCCCc1ccc2nc(NC(=N)N)nc(C)c2c1 [Compound 2005A] Not met

# strict comparison: is reported rNPFF1 IA < 40 % NPFF? input = Cc1nc(NC(=N)N)nc2ccc(Cc3ccccc3)cc12 [Compound 2003A] Not met

# strict comparison: is reported rNPFF1 IA < 40 % NPFF? input = Cc1nc(NC(=N)N)nc2ccc(CCCC(C)O)cc12 (centres unmarked) [Compound 1034A] Not met

# strict comparison: is reported rNPFF1 IA < 40 % NPFF? input = CCCCCCCc1ccc2nc(NC(=N)N)nc(C)c2c1 [Compound 2006A] Met

# strict comparison: is reported rNPFF1 IA < 40 % NPFF? input = Cc1nc(NC(=N)N)nc2ccc(C3CCCCC3)cc12 [Compound 1029A] Met

# strict comparison: is reported rNPFF1 IA < 40 % NPFF? input = Cc1nc(NC(=N)N)nc2cc(C(C)(C)C)ccc12 [Compound 1022A] Met

# strict comparison: is reported rNPFF1 IA < 40 % NPFF? input = CCCCc1ccc2nc(NC(=N)N)cc(C)c2c1 [Compound 5001A] Met

# strict comparison: is reported rNPFF1 IA < 40 % NPFF? input = Cc1nc(NC(=N)N)nc2ccc(C(C)(C)C)cc12 [Compound 1004A] Met

# strict comparison: is reported rNPFF1 IA < 40 % NPFF? input = CCCCCCc1ccc2nc(NC(=N)N)cc(C)c2c1 [Compound 5003A] Met
